tested on: LoVo; experiment: Resistance index, ratio of IC50 for human LoVo/DX cells to IC50 for human LoVo cells; type: functional
Returns: string. Value is YES if measured Ratio IC50 is below 0.4, and NO if it is greater than or equal to it.

Prompt: Dear reviewer, please state whether Cc1c2cc(OCCN(C)C)ccc2nc2c1c1ccccc1n2CCN(C)C has Ratio IC50 strictly beneath 0.4.
Completion: YES

Prompt: Hi there! Is Ratio IC50 for Cc1c2c3ccccc3nc-2n(C)c2ccccc12 below 0.4, do you know?
Completion: NO

Prompt: Below 0.4 on Ratio IC50? Entry Cc1c2ccccc2nc2c1c1cc(NC(=O)CN(C)C)ccc1n2CCN(C)C
Completion: YES

Prompt: Criterion: Ratio IC50 strictly below 0.4. Is it met by Cc1c2cc(NCCN(C)C)ccc2nc2c1c1ccccc1n2CCN(C)C ?
Completion: NO

Prompt: # TODO verify Ratio IC50 < 0.4 strictly for this molecule: Cc1c2ccccc2nc2c1c1cc(OCCN(C)C)ccc1n2CCN(C)C.O.O=C(O)C(=O)O
Completion: YES

Prompt: Find out if reported Ratio IC50 for Cc1c2ccccc2nc2c1c1cc(NCCN(C)C)ccc1n2CCN(C)C.O.O=C(O)C(=O)O is less than 0.4
Completion: NO

---

system: HL-60; test: Resistance index, ratio of IC50 for human HL60/MX2 cells to IC50 for human HL60 cells; type: functional
Response key: 1.0 means Ratio IC50 >= 2; 0.0 means Ratio IC50 < 2.

Please review the entries below; each comes with its answer.
Smiles Str: Cc1c2ccccc2nc2c1c1cc(NCCN(C)C)ccc1n2CCN(C)C.O.O=C(O)C(=O)O
Class Assignment: 1.0
//
Smiles Str: O=C1c2c(O)ccc(O)c2C(=O)c2c(NCCNCCO)ccc(NCCNCCO)c21
Class Assignment: 1.0
//
Smiles Str: Cc1c2ccccc2nc2c1c1cc(NC(=O)CN(C)C)ccc1n2CCN(C)C
Class Assignment: 1.0
//
Smiles Str: Cc1c2cc(OCCN(C)C)ccc2nc2c1c1ccccc1n2CCN(C)C
Class Assignment: 1.0
//
Smiles Str: Cc1c2c3ccccc3nc-2n(C)c2ccccc12
Class Assignment: 0.0
//
Smiles Str: Cc1c2cc(NC(=O)CN(C)C)ccc2nc2c1c1ccccc1n2CCN(C)C
Class Assignment: 1.0
//
Smiles Str: Cc1c2ccccc2nc2c1c1cc(OCCN(C)C)ccc1n2CCN(C)C.O.O=C(O)C(=O)O
Class Assignment: 1.0

Consider the record given below.
Prompt: Answer whether Ratio IC50 of Cc1c2cc(NCCN(C)C)ccc2nc2c1c1ccccc1n2CCN(C)C is greater than or equal to 2.
Completion: 0.0

---

biological target: UniProtKB P11388; test: Inhibition of human topoisomerase 2-mediated [3H]TdR-labeled catenated kinetoplast DNA decatenation after 15 to 30 mins by scintillation counting
Sequence (P11388 whole entry): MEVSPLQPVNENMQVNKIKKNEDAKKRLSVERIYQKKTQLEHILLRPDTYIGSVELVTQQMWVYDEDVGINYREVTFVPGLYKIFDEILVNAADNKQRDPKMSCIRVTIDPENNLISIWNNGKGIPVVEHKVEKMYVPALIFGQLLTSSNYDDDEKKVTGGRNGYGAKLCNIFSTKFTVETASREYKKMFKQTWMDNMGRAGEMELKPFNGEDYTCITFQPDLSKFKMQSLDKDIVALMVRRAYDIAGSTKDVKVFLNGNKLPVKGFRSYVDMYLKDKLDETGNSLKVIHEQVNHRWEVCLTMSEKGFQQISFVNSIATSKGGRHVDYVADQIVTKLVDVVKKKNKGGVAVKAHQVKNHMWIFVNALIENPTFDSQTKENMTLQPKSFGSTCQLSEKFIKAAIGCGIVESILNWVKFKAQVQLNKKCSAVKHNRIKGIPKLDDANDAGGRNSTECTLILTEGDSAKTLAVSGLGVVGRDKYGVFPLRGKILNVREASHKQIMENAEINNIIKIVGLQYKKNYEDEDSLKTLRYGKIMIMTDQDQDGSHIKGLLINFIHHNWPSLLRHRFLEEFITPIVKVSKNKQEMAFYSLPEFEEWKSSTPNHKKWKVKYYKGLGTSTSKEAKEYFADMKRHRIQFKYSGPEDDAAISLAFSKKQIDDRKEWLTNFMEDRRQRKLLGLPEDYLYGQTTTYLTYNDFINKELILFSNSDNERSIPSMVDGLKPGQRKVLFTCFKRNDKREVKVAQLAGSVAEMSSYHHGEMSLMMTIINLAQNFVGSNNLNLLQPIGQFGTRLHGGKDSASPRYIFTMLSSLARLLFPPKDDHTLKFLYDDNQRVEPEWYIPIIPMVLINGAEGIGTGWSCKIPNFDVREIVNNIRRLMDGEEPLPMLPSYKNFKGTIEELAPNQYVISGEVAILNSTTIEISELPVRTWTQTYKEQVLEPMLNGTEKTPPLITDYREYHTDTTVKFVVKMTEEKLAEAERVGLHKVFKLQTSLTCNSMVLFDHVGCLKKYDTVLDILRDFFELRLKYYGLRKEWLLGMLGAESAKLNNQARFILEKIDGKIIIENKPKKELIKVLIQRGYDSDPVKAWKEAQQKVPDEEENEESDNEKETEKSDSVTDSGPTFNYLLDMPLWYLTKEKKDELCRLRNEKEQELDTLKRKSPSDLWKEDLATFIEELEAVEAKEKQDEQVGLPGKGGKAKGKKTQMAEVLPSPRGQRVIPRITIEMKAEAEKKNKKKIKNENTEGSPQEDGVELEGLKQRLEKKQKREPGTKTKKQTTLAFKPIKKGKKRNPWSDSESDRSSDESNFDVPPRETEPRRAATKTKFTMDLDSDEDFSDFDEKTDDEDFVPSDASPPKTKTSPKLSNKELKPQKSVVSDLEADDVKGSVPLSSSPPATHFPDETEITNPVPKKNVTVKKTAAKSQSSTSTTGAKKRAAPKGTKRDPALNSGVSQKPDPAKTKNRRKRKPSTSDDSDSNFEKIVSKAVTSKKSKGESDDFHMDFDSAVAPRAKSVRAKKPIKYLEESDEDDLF
Result Type: INH (mM)
Give bare numbers, in mM.

For orientation, consider the following solved cases.
Smiles Str: Cc1c2c3ccccc3nc-2n(C)c2ccccc12
Result Type: INH
Unit String: mM
Recorded Result: 0.5
//
Smiles Str: Cc1c2cc(NC(=O)CN(C)C)ccc2nc2c1c1ccccc1n2CCN(C)C
Result Type: INH
Unit String: mM
Recorded Result: 0.05

// next entry
Prompt: Form field - read-out: INH; system: UniProtKB P11388; submitted item: Cc1c2ccccc2nc2c1c1cc(OCCN(C)C)ccc1n2CCN(C)C.O.O=C(O)C(=O)O
Completion: 0.025
